Target: Human CD3eg linker (human)
Sequence (chain, as listed by the source limits assumed): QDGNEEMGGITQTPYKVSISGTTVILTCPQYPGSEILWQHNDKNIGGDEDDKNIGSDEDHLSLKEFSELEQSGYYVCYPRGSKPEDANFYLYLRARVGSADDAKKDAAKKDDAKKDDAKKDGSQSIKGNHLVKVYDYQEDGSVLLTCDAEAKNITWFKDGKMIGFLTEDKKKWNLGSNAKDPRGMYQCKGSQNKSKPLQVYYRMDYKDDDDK
Experiment: SPR; fold vs parent H183/L072
METRIC: fold change of affinity

A selection of reference data follows.
>>> result("H183/L072 VL H34Y (antibody, name in Kabat numbering, V domains shown) VH: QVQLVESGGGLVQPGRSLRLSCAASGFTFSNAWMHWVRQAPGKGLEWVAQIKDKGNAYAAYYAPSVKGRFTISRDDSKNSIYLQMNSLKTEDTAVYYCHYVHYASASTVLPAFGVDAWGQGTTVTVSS VL: DIVMTQSPLSLPVTPGEPASISCQASQELVHMNRNTYLYWYQQKPGQAPRLLIYKVSNRFPGVPDRFSGSGSGTDFTLKISRVEAEDVGVYYCAQGTSVPFTFGQGTKLEIK")
"0 fold"
>>> result("H183/L072 VL F96W (antibody, name in Kabat numbering, V domains shown) VH: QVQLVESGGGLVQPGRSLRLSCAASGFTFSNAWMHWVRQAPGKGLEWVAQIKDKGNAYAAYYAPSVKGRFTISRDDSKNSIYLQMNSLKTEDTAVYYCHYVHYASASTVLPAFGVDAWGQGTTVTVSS VL: DIVMTQSPLSLPVTPGEPASISCQASQELVHMNRNTYLHWYQQKPGQAPRLLIYKVSNRFPGVPDRFSGSGSGTDFTLKISRVEAEDVGVYYCAQGTSVPWTFGQGTKLEIK")
"0 fold"

Now consider the entry below.
Looking up H183/L072 VL K50I (antibody, name in Kabat numbering, V domains shown) VH: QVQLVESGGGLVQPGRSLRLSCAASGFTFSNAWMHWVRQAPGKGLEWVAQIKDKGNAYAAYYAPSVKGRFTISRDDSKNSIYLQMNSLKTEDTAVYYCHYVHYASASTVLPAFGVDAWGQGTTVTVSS VL: DIVMTQSPLSLPVTPGEPASISCQASQELVHMNRNTYLHWYQQKPGQAPRLLIYIVSNRFPGVPDRFSGSGSGTDFTLKISRVEAEDVGVYYCAQGTSVPFTFGQGTKLEIK , I see its fold change of affinity listed as 0 fold
